Measured values drawn from patent US6395255B1 for this set.

Test: Tissue distribution and gamma camera imaging in nude mice bearing LS174T tumors
Details: athymic NCr nude, mouse, liver, iv, total radioactivity, Biodistribution, 24 h postinjection, nude mice bearing LS174T tumors, mean ± SD, n = 5
Square brackets hold non-standard residues; d marks the D form. Peptide text beside a SMILES is read from it. GABA = NCCCC(=O)O
parameter_measured: tissue uptake at 24 h (%ID/g)
Report only the number, with the unit %ID/g understood.

The molecule C[C@@H](NC(=O)CN)C(=O)NCC(=O)NCC(=O)NCCCC(=O)O [^99mTc-G(D)AGG-Aba, metal not drawn] (H-G[dA]GG[GABA]-OH; N-terminus and C-terminus assumed) showed tissue uptake at 24 h equal to 0.16

====

Test: Tissue distribution and gamma camera imaging in nude mice bearing LS174T tumors
Settings: athymic NCr nude, mouse, small intestine, iv, total radioactivity, Biodistribution, 24 h postinjection, nude mice bearing LS174T tumors, mean ± SD, n = 5
Square brackets hold non-standard residues; d marks the D form. Peptide text beside a SMILES is read from it. GABA = NCCCC(=O)O
parameter_measured: tissue uptake at 24 h (%ID/g)
Expressed in %ID/g, but write only the number.

Recorded tissue uptake at 24 h (compound C[C@@H](NC(=O)CN)C(=O)NCC(=O)NCC(=O)NCCCC(=O)O [^99mTc-G(D)AGG-Aba, metal not drawn] (H-G[dA]GG[GABA]-OH; N-terminus and C-terminus assumed) ): 0.03

====

Assay: Tissue distribution and gamma camera imaging in nude mice bearing LS174T tumors
Conditions: athymic NCr nude, mouse, muscle, iv, total radioactivity, Biodistribution, 24 h postinjection, nude mice bearing LS174T tumors, mean ± SD, n = 5
Square brackets hold non-standard residues; d marks the D form. Peptide text beside a SMILES is read from it. GABA = NCCCC(=O)O
parameter_measured: tissue uptake at 24 h (%ID/g)
Write the number in %ID/g without appending the unit.

Looking up C[C@@H](NC(=O)CN)C(=O)NCC(=O)NCC(=O)NCCCC(=O)O [^99mTc-G(D)AGG-Aba, metal not drawn] (H-G[dA]GG[GABA]-OH; N-terminus and C-terminus assumed) , I see its tissue uptake at 24 h listed as 0.01

====

Assay: Tissue distribution and gamma camera imaging in nude mice bearing LS174T tumors
Conditions: athymic NCr nude, mouse, tumor/muscle, iv, total radioactivity, T/M ratio (tumor-to-muscle), 24 h postinjection, nude mice bearing LS174T tumors, mean ± SD, n = 5
Square brackets hold non-standard residues; d marks the D form. Peptide text beside a SMILES is read from it. GABA = NCCCC(=O)O
parameter_measured: tissue to tissue ratio at 24 h
Form: value (number only, do not type unit).

// field: tissue to tissue ratio at 24 h; key: C[C@@H](NC(=O)CN)C(=O)NCC(=O)NCC(=O)NCCCC(=O)O [^99mTc-G(D)AGG-Aba, metal not drawn] (H-G[dA]GG[GABA]-OH; N-terminus and C-terminus assumed) ; value = 1.88

====

Test: Tissue distribution and gamma camera imaging in nude mice bearing LS174T tumors
Details: athymic NCr nude, mouse, tumor/blood, iv, total radioactivity, T/B ratio (tumor-to-blood), 24 h postinjection, nude mice bearing LS174T tumors, mean ± SD, n = 5
Square brackets hold non-standard residues; d marks the D form. Peptide text beside a SMILES is read from it. GABA = NCCCC(=O)O
parameter_measured: tissue to tissue ratio at 24 h
Lab note: record the figure alone, no unit after it.

Recorded tissue to tissue ratio at 24 h (molecule C[C@@H](NC(=O)CN)C(=O)NCC(=O)NCC(=O)NCCCC(=O)O [^99mTc-G(D)AGG-Aba, metal not drawn] (H-G[dA]GG[GABA]-OH; N-terminus and C-terminus assumed) ): 0.77
